The reported numbers originate from patent US20150344502A1.

System: E. cloacae 1481026
recorded-metric: MIC (µg/mL)
Give bare numbers, in µg/mL.

Consider the following illustrative entries.
record-smiles | MIC (µg/mL)
CC[N+](CC)(CCN1C(=O)c2ccc(O)c(O)c2C1=O)CC1=C(C(=O)[O-])N2C(=O)[C@@H](NC(=O)/C(=N\OC(C)(C)C(=O)[O-])c3csc(N)n3)[C@H]2SC1.[Na+] | 0.5
CC[N+](CC)(CCN1C(=O)c2ccc(O)c(O)c2C1=O)CC1=C(c2nn[nH]n2)N2C(=O)[C@@H](NC(=O)/C(=N\OC(C)(C)C(=O)O)c3csc(N)n3)[C@H]2SC1.[Na+] | 0.5
CC(C)(O/N=C(\C(=O)N[C@@H]1C(=O)N2C(C(=O)O)=C(C[N+]3(CCN4C(=O)c5ccc(O)c(O)c5C4=O)CCCCC3)CS[C@H]12)c1csc(N)n1)C(=O)[O-] | 0.5
CC(C)(O/N=C(\C(=O)N[C@@H]1C(=O)N2C(C(=O)[O-])=C(C[N+]34CCC(CNC(=O)C(=O)c5cc(O)c(O)c(F)c5)(CC3)CC4)CS[C@H]12)c1csc(N)n1)C(=O)[O-].[Na+] | 2
CC(C)(O/N=C(\C(=O)N[C@@H]1C(=O)N2C(C(=O)O)=C(C[N+]3(Cc4noc5cc(O)c(O)cc45)CCCC3)CS[C@H]12)c1csc(N)n1)C(=O)[O-] | 4
CC(C)(O/N=C(\C(=O)N[C@@H]1C(=O)N2C(c3nnn[nH]3)=C(C[N+]3(CCN4C(=O)c5ccc(O)c(O)c5C4=O)CCCC3)CS[C@H]12)c1nc(N)sc1Cl)C(=O)[O-] | 0.5
CC(C)(O/N=C(\C(=O)N[C@@H]1C(=O)N2C(c3nnn[nH]3)=C(C[N+]3(CCN4C(=O)c5ccc(O)c(O)c5C4=O)CCCC3)CS[C@H]12)c1csc(N)n1)C(=O)[O-] | 0.5
CC(C)(O/N=C(\C(=O)N[C@@H]1C(=O)N2C(c3nnn[n-]3)=C(C[N+]3(CCN4C(=O)c5ccc(O)c(O)c5C4=O)CCCCC3)CS[C@H]12)c1csc(N)n1)C(=O)[O-].[Na+] | 0.5

Would you be so kind as to report MIC for each listed record?
1. CC(C)(O/N=C(\C(=O)N[C@@H]1C(=O)N2C(C(=O)O)=C(C[N+]34CCC(CN5C(=O)c6ccc(O)c(O)c6C5=O)(CC3)CC4)CS[C@H]12)c1csc(N)n1)C(=O)[O-]
2. CC[N+](CC)(CCN1C(=O)c2ccc(O)c(O)c2C1=O)CC1=C(C(=O)[O-])N2C(=O)[C@@H](NC(=O)/C(=N\O[C@@H](CC(=O)[O-])C(=O)[O-])c3csc(N)n3)[C@H]2SC1.[Na+].[Na+]
3. CC(C)(O/N=C(\C(=O)N[C@@H]1C(=O)N2C(C(=O)[O-])=C(C[N+]34CCC(Cn5ncc6cc(O)c(O)cc6c5=O)(CC3)C4)CS[C@H]12)c1csc(N)n1)C(=O)[O-].[Na+]

16
0.5
1
